- measuredTarget: T1, Extracellular domain of human PD1 (huPD1-ECD) (human, UniProt Q15116 25-169, biotinylated in the ligand inhibition assay (sites not given))
- T1 construct: Expressed with a hexahistidine tag or as Fc fusion; also called biotinylated PD-1
- T1 sequence (Q15116 25-169 limits assumed): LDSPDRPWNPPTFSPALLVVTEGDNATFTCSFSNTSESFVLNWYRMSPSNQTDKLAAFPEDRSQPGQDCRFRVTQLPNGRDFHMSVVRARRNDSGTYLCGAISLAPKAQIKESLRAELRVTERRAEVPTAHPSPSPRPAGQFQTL
- assayOverview: SPR ProteOn, captured mAb, huPD1-ECD analyte
metricName: koff (s⁻¹)
Note: unit s⁻¹ is implicit; provide only the numeric part.

Before answering, review these 5 worked examples.
In: I am curious: what koff value has been reported for PD1B149 (antibody, human IgG2, kappa, V domains shown, IgG2sigma/kappa; VH 41, VL 50; also called PD1H24/PD1L128) VH: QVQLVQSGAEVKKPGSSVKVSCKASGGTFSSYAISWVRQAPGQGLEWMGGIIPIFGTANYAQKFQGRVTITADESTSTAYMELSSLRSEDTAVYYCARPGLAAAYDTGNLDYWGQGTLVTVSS VL: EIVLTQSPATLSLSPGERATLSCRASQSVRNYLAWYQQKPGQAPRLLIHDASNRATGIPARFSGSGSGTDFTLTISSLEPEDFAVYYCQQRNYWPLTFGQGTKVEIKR ?
Out: 0.0062

In: I am curious: what koff value has been reported for PD1B160 (antibody, human IgG2, kappa, V domains shown, IgG2sigma/kappa; VH 42, VL 51; also called PD1H131/PD1L101) VH: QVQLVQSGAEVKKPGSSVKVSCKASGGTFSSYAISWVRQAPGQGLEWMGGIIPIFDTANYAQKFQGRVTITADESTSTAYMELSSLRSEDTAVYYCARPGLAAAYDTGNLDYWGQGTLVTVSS VL: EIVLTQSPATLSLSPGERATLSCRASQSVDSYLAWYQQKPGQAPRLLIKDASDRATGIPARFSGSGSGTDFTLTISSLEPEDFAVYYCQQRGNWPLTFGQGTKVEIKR ?
Out: 0.00371

In: I am curious: what koff value has been reported for PD1B11 (antibody, V domains shown, Tested as IgG2sigma/kappa; also called PD1H3/PH9L3) VH: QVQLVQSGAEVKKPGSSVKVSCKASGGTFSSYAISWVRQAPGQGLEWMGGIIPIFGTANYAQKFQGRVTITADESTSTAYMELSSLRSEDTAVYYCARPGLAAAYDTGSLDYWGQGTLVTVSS VL: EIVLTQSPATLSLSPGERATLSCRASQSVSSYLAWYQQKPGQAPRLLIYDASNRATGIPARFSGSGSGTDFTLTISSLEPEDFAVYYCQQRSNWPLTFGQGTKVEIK ?
Out: 0.00852

In: I am curious: what koff value has been reported for PD1B175 (antibody, V domains shown, Tested as IgG2sigma; also called PD1H163/PH9L3) VH: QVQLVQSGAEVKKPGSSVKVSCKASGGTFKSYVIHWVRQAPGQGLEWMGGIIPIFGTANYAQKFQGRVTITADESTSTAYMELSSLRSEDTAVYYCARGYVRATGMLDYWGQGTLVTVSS VL: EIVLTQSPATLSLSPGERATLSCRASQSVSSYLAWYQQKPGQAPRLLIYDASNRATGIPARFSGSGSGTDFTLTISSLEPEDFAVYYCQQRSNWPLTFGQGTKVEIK ?
Out: 0.00972

In: I am curious: what koff value has been reported for PD1B177 (antibody, V domains shown, Tested as IgG2sigma; also called PD1H164/PH9L3) VH: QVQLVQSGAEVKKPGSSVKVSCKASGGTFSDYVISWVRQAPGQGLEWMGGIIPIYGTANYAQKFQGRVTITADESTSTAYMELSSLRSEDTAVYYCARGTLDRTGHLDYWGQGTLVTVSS VL: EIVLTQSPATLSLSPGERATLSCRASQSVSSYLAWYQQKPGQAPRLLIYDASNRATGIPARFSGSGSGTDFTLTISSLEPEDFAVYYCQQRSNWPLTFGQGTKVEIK ?
Out: 0.00257

As a next step, examine the binder that follows.
In: I am curious: what koff value has been reported for PD1B183 (antibody, human IgG2, kappa, V domains shown, IgG2sigma/kappa; VH 43, VL 54; also called PD1H3/PD1L109) VH: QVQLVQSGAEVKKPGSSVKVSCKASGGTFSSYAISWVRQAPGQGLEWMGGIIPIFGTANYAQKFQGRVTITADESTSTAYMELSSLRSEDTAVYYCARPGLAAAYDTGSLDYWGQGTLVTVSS VL: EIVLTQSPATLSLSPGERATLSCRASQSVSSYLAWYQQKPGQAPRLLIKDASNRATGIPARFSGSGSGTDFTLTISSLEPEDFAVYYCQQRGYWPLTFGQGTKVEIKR ?
Out: 0.00844
